Tested system: EGFR L858R/T790M (H1975-clone #36, homozygous) (Homo sapiens, UniProt P00533, L858R/T790M)
Construct: designed to specifically target WT EGFR but preserve the L858R/T790M copy; host or cells: H1975-clone #36
Sequence (P00533 25-1210 T790M/L858R): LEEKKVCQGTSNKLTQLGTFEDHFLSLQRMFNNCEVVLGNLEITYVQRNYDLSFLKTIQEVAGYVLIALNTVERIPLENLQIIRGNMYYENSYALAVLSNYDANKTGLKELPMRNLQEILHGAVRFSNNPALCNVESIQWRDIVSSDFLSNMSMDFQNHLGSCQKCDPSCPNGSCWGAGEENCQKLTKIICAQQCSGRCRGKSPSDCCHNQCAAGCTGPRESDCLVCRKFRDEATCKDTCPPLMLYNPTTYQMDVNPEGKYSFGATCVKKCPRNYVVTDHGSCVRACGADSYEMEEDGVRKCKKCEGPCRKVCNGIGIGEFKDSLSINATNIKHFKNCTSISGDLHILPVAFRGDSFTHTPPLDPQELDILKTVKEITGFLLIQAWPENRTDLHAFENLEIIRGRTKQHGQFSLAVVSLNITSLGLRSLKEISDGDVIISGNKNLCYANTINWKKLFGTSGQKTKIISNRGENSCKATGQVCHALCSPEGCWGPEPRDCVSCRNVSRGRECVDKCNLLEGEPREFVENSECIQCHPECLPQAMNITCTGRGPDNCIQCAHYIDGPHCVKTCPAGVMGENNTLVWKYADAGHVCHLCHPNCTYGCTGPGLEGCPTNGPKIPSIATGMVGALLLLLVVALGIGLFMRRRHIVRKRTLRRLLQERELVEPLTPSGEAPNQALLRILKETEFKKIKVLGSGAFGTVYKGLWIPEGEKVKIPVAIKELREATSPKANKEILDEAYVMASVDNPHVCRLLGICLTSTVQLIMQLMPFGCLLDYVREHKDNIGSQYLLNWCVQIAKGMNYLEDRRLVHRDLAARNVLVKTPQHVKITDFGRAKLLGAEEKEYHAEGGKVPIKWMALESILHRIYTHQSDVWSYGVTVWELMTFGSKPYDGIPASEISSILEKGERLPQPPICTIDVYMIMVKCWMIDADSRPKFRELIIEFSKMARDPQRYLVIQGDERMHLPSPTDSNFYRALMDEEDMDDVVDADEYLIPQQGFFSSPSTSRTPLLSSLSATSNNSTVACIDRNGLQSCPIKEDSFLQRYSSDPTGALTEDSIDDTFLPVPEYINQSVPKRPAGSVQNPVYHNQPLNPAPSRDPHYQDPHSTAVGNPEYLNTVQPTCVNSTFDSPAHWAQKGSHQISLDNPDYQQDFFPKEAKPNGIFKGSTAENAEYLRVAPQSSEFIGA
Measurement notes: EGFR degradation HTRF assay, H1975-clone #36 cells
Assay type: cell-based
Setup conditions: NCI-H1975; H1975 #36, 16h treatment, maximum percentage of degradation
Reported endpoint: Dmax (%)

* COc1cc(N2CCC(N3CCN(C(=O)CCCCN4CCN(c5ccc6c(c5)C(=O)N(C5CCC(=O)NC5=O)C6=O)CC4)CC3)CC2)ccc1Nc1ncc(Cl)c(Nc2ccccc2N(C)S(C)(=O)=O)n1 (stereo not shown) | 85
* COc1cc(N2CCC(N3CCN(CCc4ccc(NC5CCC(=O)NC5=O)cc4)CC3)CC2)ccc1Nc1ncc(Cl)c(Nc2ccccc2NS(C)(=O)=O)n1 (stereo not shown) | 73.3
* CCc1cc(Nc2ncc(Br)c(Nc3ccc4nccnc4c3P(C)(C)=O)n2)c(OC)cc1N1CCC(N2CCN(CC3CCN(c4ccc(C5CCC(=O)NC5=O)cc4)CC3)CC2)CC1 (stereo not shown) | 41.7
* COc1cc(N2CCN(CCCC(=O)N[C@H](C(=O)N3C[C@H](O)C[C@H]3C(=O)N[C@@H](C)c3ccc(-c4scnc4C)cc3)C(C)(C)C)CC2)c(C)cc1Nc1ncc(Br)c(Nc2ccc3nccnc3c2P(C)(C)=O)n1 | 65.1
* COc1cc(N2CCC(N3CCN(C(=O)C4CCN(CC5CCN(c6ccc7c(c6)C(=O)N(C6CCC(=O)NC6=O)C7=O)CC5)CC4)CC3)CC2)ccc1Nc1ncc(Cl)c(Nc2ccccc2P(C)(C)=O)n1 (stereo not shown) | 97.3
* CCc1cc(Nc2ncc(Br)c(Nc3ccc4nccnc4c3P(C)(C)=O)n2)c(OC)cc1N1CCC(N2CCN(CC3CCN(c4ccc5c(c4)C(=O)N(C4CCC(=O)NC4=O)C5=O)CC3)CC2)CC1 (stereo not shown) | 75
* CP(C)(=O)c1c(Nc2nc(Nc3ccc(N4CCN(C5CN(CC6CN(c7ccc8c(c7)C(=O)N(C7CCC(=O)NC7=O)C8=O)C6)C5)CC4)c(F)c3)ncc2Br)ccc2nccnc12 (stereo not shown) | 99.9
* CCc1cc(Nc2ncc(Br)c(Nc3ccc4nccnc4c3P(C)(C)=O)n2)c(OC)cc1N1CCC(N2CCN(C(=O)CC3CCN(c4ccc(C5CCC(=O)NC5=O)cc4)CC3)CC2)CC1 (stereo not shown) | 65.5
* CCc1cc(Nc2ncc(Br)c(Nc3ccc4nccnc4c3P(C)(C)=O)n2)c(OC)cc1N1CCC(N2CCN(CCc3cccc4c3n(C)c(=O)n4C3CCC(=O)NC3=O)CC2)CC1 (stereo not shown) | 88.8
* CCc1cc(Nc2ncc(Br)c(Nc3ccc4nccnc4c3P(C)(C)=O)n2)c(OC)cc1N1CCC(N2CCN(CCc3ccc(C4CCC(=O)NC4=O)c(F)c3F)CC2)CC1 (stereo not shown) | 82.6

* * *

Item-by-item account of Dmax
Tested system: EGFR (HCC827 cells) (Homo sapiens, UniProt P00533, DEL746-750)
Construct: endogenous in cells; host or cells: HCC827
Sequence (P00533 with tags, fused parts or gaps DEL746-750): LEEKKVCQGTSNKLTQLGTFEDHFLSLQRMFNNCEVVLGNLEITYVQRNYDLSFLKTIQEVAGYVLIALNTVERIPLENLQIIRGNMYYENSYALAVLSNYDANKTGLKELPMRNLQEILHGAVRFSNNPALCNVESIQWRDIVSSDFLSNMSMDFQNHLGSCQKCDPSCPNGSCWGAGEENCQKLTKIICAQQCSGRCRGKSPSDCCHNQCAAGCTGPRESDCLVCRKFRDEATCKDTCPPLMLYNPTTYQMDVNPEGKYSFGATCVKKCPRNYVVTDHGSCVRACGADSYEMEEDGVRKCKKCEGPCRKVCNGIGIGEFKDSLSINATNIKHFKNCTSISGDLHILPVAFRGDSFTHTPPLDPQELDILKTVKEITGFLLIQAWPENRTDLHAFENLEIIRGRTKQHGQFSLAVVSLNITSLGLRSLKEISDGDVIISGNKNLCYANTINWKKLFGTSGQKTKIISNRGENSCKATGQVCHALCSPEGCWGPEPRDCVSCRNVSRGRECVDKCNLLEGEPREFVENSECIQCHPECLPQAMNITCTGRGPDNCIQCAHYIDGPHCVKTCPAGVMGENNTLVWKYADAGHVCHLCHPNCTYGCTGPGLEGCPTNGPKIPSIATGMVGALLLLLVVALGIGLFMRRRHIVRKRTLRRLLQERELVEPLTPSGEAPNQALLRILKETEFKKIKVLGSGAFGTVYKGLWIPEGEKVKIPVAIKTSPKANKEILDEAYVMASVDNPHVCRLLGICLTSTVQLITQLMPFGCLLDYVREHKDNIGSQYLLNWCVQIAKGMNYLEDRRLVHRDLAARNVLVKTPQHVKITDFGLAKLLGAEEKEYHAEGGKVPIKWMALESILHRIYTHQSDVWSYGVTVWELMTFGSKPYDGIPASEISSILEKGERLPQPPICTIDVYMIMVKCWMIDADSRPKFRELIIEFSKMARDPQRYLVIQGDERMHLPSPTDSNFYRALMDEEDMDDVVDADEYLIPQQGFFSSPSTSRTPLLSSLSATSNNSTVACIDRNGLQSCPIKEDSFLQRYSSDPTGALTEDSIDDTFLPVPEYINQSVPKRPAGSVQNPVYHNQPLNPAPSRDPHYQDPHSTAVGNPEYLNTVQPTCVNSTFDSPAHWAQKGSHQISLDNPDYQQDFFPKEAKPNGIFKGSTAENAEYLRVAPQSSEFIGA
Measurement notes: EGFR degradation HTRF assay, HCC827 cells
Type: cell-based
Setup conditions: HCC827, 16h treatment, maximum percentage of degradation
Reported endpoint: Dmax (%)

• COc1cc(N2CCN(CC3CCN(c4ccc(N5CCC(=O)NC5=O)cc4)CC3)CC2)c(C)cc1Nc1ncc(Br)c(Nc2ccc3nccnc3c2P(C)(C)=O)n1 = 71.3
• CCc1cc(Nc2ncc(Br)c(Nc3ccc4nccnc4c3P(C)(C)=O)n2)c(OC)cc1N1CCC(N2CCN(CCC3CCN(c4ccc(C5CCC(=O)NC5=O)cc4)CC3)CC2)CC1 (stereo not drawn) = 93.4
• COc1cc(N2CCC(N3CCN(CCc4ccc(NC5CCC(=O)NC5=O)cc4)CC3)CC2)ccc1Nc1ncc(Cl)c(Nc2ccccc2P(C)(C)=O)n1 (stereo not drawn) = 82.2
• COc1cc(N2CCC(N3CCN(CC4CCC(c5ccc(N6CCC(=O)NC6=O)cc5)CC4)CC3)CC2)ccc1Nc1ncc(Cl)c(Nc2ccccc2P(C)(C)=O)n1 (stereo not drawn) = 81.2
• COc1cc(N2CCN(CC3CCN(c4ccc(N5CCC(=O)NC5=O)cc4C)CC3)CC2)c(C)cc1Nc1ncc(Br)c(Nc2ccc3nccnc3c2P(C)(C)=O)n1 = 62.3
• CCc1cc(Nc2ncc(Br)c(Nc3ccc4nccnc4c3P(C)(C)=O)n2)c(OC)cc1N1CCC(N2CCN(C[C@@H]3CCN(c4ccc(C5CCC(=O)NC5=O)cc4)C3)CC2)CC1 (stereo partly drawn) = 75.3
